Entry source: the NIST ThermoML archive (doi:10.1016/j.jct.2008.12.005)

Assay: activity coefficient (dimensionless); of the first substance listed, at infinite dilution; xn = mol fraction of the nth substance listed
Details: 368.15 K; 101 kPa; Liquid; Chromatography; x1 = 0
Overview of reported activity coefficient across a group of molecules:

{"MOLECULE": "CCCCCCC [heptane] + CC[S+](CC)CC.O=S(=O)([N-]S(=O)(=O)C(F)(F)F)C(F)(F)F", "activity coefficient": 22.5}

**Q:** Retrieve activity coefficient measured for CO [methanol] + CC[S+](CC)CC.O=S(=O)([N-]S(=O)(=O)C(F)(F)F)C(F)(F)F and print it.
**A:** 0.935

**Q:** Retrieve activity coefficient measured for C1CCCCCCC1 [cyclooctane] + CC[S+](CC)CC.O=S(=O)([N-]S(=O)(=O)C(F)(F)F)C(F)(F)F and print it.
**A:** 16

**Q:** Retrieve activity coefficient measured for c1ccccc1 [benzene] + CC[S+](CC)CC.O=S(=O)([N-]S(=O)(=O)C(F)(F)F)C(F)(F)F and print it.
**A:** 1.15

**Q:** Retrieve activity coefficient measured for COC(C)(C)C [2-methoxy-2-methylpropane] + CC[S+](CC)CC.O=S(=O)([N-]S(=O)(=O)C(F)(F)F)C(F)(F)F and print it.
**A:** 3.05

**Q:** Retrieve activity coefficient measured for C=CCCCCCC [oct-1-ene] + CC[S+](CC)CC.O=S(=O)([N-]S(=O)(=O)C(F)(F)F)C(F)(F)F and print it.
**A:** 17.3

**Q:** Retrieve activity coefficient measured for C1CCCC1 [cyclopentane] + CC[S+](CC)CC.O=S(=O)([N-]S(=O)(=O)C(F)(F)F)C(F)(F)F and print it.
**A:** 6.94

###

Assay: activity coefficient (dimensionless); of the first substance listed, at infinite dilution; xn = mol fraction of the nth substance listed
Conditions: 308.15 K; 101 kPa; Liquid; Chromatography; x1 = 0
TEST_READOUT: activity coefficient
// return a plain number; no unit text

{"MOLECULE": "C#CCCCCCC [1-octyne] + CC[S+](CC)CC.O=S(=O)([N-]S(=O)(=O)C(F)(F)F)C(F)(F)F", "activity coefficient": 7.68}

**Q:** Retrieve activity coefficient measured for CCCCCCC [heptane] + CC[S+](CC)CC.O=S(=O)([N-]S(=O)(=O)C(F)(F)F)C(F)(F)F and print it.
**A:** 36.9

**Q:** Retrieve activity coefficient measured for CCCCCCCCCC [decane] + CC[S+](CC)CC.O=S(=O)([N-]S(=O)(=O)C(F)(F)F)C(F)(F)F and print it.
**A:** 114

**Q:** Retrieve activity coefficient measured for C=CCCC [1-pentene] + CC[S+](CC)CC.O=S(=O)([N-]S(=O)(=O)C(F)(F)F)C(F)(F)F and print it.
**A:** 8.41

**Q:** Retrieve activity coefficient measured for CCCO [propan-1-ol] + CC[S+](CC)CC.O=S(=O)([N-]S(=O)(=O)C(F)(F)F)C(F)(F)F and print it.
**A:** 2.49

**Q:** Retrieve activity coefficient measured for C1CCOC1 [tetrahydrofuran] + CC[S+](CC)CC.O=S(=O)([N-]S(=O)(=O)C(F)(F)F)C(F)(F)F and print it.
**A:** 0.803

**Q:** Retrieve activity coefficient measured for CCO [ethanol] + CC[S+](CC)CC.O=S(=O)([N-]S(=O)(=O)C(F)(F)F)C(F)(F)F and print it.
**A:** 1.95

**Q:** Retrieve activity coefficient measured for C1CCCCC1 [cyclohexane] + CC[S+](CC)CC.O=S(=O)([N-]S(=O)(=O)C(F)(F)F)C(F)(F)F and print it.
**A:** 14.7

###

Overview of reported activity coefficient across a group of compounds:
Test: activity coefficient (dimensionless); of the first substance listed, at infinite dilution; xn = mol fraction of the nth substance listed
Settings: 298.15 K; 101 kPa; Liquid; Chromatography; x1 = 0

Below: 5 compounds and their reported activity coefficient.
{"COMPOUND": "C1CCCC1 [cyclopentane] + CC[S+](CC)CC.O=S(=O)([N-]S(=O)(=O)C(F)(F)F)C(F)(F)F", "RESULT": 10.8}
{"COMPOUND": "C1CCOC1 [tetrahydrofuran] + CC[S+](CC)CC.O=S(=O)([N-]S(=O)(=O)C(F)(F)F)C(F)(F)F", "RESULT": 0.788}
{"COMPOUND": "C1CCCCCC1 [cycloheptane] + CC[S+](CC)CC.O=S(=O)([N-]S(=O)(=O)C(F)(F)F)C(F)(F)F", "RESULT": 21.7}
{"COMPOUND": "CCCCCCCCC [nonane] + CC[S+](CC)CC.O=S(=O)([N-]S(=O)(=O)C(F)(F)F)C(F)(F)F", "RESULT": 87.2}
{"COMPOUND": "CCCCCCC [heptane] + CC[S+](CC)CC.O=S(=O)([N-]S(=O)(=O)C(F)(F)F)C(F)(F)F", "RESULT": 40.4}

**Q:** Retrieve activity coefficient measured for C1CCCCC1 [cyclohexane] + CC[S+](CC)CC.O=S(=O)([N-]S(=O)(=O)C(F)(F)F)C(F)(F)F and print it.
**A:** 16.1

**Q:** Retrieve activity coefficient measured for CCCCC [pentane] + CC[S+](CC)CC.O=S(=O)([N-]S(=O)(=O)C(F)(F)F)C(F)(F)F and print it.
**A:** 21.6

**Q:** Retrieve activity coefficient measured for c1ccccc1 [benzene] + CC[S+](CC)CC.O=S(=O)([N-]S(=O)(=O)C(F)(F)F)C(F)(F)F and print it.
**A:** 1.08

**Q:** Retrieve activity coefficient measured for C=CCCC [1-pentene] + CC[S+](CC)CC.O=S(=O)([N-]S(=O)(=O)C(F)(F)F)C(F)(F)F and print it.
**A:** 8.81

**Q:** Retrieve activity coefficient measured for C#CCCC [1-pentyne] + CC[S+](CC)CC.O=S(=O)([N-]S(=O)(=O)C(F)(F)F)C(F)(F)F and print it.
**A:** 2.52

**Q:** Retrieve activity coefficient measured for C#CCCCC [1-hexyne] + CC[S+](CC)CC.O=S(=O)([N-]S(=O)(=O)C(F)(F)F)C(F)(F)F and print it.
**A:** 3.63

**Q:** Retrieve activity coefficient measured for C=CCCCCC [1-heptene] + CC[S+](CC)CC.O=S(=O)([N-]S(=O)(=O)C(F)(F)F)C(F)(F)F and print it.
**A:** 18.3

**Q:** Retrieve activity coefficient measured for CCCCCCCCCC [decane] + CC[S+](CC)CC.O=S(=O)([N-]S(=O)(=O)C(F)(F)F)C(F)(F)F and print it.
**A:** 131

**Q:** Retrieve activity coefficient measured for C#CCCCCCC [1-octyne] + CC[S+](CC)CC.O=S(=O)([N-]S(=O)(=O)C(F)(F)F)C(F)(F)F and print it.
**A:** 7.87

###

Assay: activity coefficient (dimensionless); of the first substance listed, at infinite dilution; xn = mol fraction of the nth substance listed
Settings: 338.15 K; 101 kPa; Liquid; Chromatography; x1 = 0
TEST_READOUT: activity coefficient
// return a plain number; no unit text

Below: 3 compounds and their reported activity coefficient.
{"COMPOUND": "CCO [ethanol] + CC[S+](CC)CC.O=S(=O)([N-]S(=O)(=O)C(F)(F)F)C(F)(F)F", "RESULT": 1.48}
{"COMPOUND": "C=CCCCCCC [oct-1-ene] + CC[S+](CC)CC.O=S(=O)([N-]S(=O)(=O)C(F)(F)F)C(F)(F)F", "RESULT": 20.4}
{"COMPOUND": "C#CCCCCCC [1-octyne] + CC[S+](CC)CC.O=S(=O)([N-]S(=O)(=O)C(F)(F)F)C(F)(F)F", "RESULT": 7.2}

// switching to the query compound
**Q:** Retrieve activity coefficient measured for C#CCCCC [1-hexyne] + CC[S+](CC)CC.O=S(=O)([N-]S(=O)(=O)C(F)(F)F)C(F)(F)F and print it.
**A:** 3.57

###

Overview of reported activity coefficient across a group of compounds:
Experiment: activity coefficient (dimensionless); of the first substance listed, at infinite dilution; xn = mol fraction of the nth substance listed
Details: 328.15 K; 101 kPa; Liquid; Chromatography; x1 = 0
// return a plain number; no unit text

{"COMPOUND": "C1CCCCCC1 [cycloheptane] + CC[S+](CC)CC.O=S(=O)([N-]S(=O)(=O)C(F)(F)F)C(F)(F)F", "activity coefficient": 16.5}
{"COMPOUND": "CCO [ethanol] + CC[S+](CC)CC.O=S(=O)([N-]S(=O)(=O)C(F)(F)F)C(F)(F)F", "activity coefficient": 1.61}
{"COMPOUND": "C1CCCCCCC1 [cyclooctane] + CC[S+](CC)CC.O=S(=O)([N-]S(=O)(=O)C(F)(F)F)C(F)(F)F", "activity coefficient": 22.4}
{"COMPOUND": "C#CCCCCCC [1-octyne] + CC[S+](CC)CC.O=S(=O)([N-]S(=O)(=O)C(F)(F)F)C(F)(F)F", "activity coefficient": 7.35}
{"COMPOUND": "COC(C)(C)C [2-methoxy-2-methylpropane] + CC[S+](CC)CC.O=S(=O)([N-]S(=O)(=O)C(F)(F)F)C(F)(F)F", "activity coefficient": 2.98}
{"COMPOUND": "C=CCCCC [hex-1-ene] + CC[S+](CC)CC.O=S(=O)([N-]S(=O)(=O)C(F)(F)F)C(F)(F)F", "activity coefficient": 10.6}

// switching to the query compound
**Q:** Retrieve activity coefficient measured for CO [methanol] + CC[S+](CC)CC.O=S(=O)([N-]S(=O)(=O)C(F)(F)F)C(F)(F)F and print it.
**A:** 1.25
